// provenance: the supplement of paper PMC10065799

# assayedTarget: Fyn (UniProt P06241)
# Sequence (P06241 whole entry, looked up): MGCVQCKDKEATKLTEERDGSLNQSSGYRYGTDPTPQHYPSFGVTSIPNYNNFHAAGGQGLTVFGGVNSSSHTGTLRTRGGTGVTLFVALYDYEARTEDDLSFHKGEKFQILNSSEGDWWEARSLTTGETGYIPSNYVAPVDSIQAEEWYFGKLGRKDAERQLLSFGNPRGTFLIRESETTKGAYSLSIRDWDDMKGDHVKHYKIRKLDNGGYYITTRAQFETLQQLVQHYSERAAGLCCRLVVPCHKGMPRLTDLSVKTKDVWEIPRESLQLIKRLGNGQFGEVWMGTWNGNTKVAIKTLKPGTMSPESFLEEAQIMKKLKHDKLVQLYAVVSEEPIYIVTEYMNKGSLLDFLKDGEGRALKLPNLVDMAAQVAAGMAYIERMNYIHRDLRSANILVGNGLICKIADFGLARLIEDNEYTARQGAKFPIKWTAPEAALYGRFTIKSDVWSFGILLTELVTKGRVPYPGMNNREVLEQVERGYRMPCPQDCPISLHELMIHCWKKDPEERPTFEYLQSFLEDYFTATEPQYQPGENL
# test: phosphorylation enrichment, bacterial display (enrichment ratio); higher = better substrate or ligand; peptides without Tyr show the background;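 note: 11-residue human phosphosite peptides and single-mutation variants displayed on the E. coli surface, counted by deep sequencing, each peptide's frequency after selection divided by its frequency in the unselected input library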;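 note: frequency after pTyr selection over input frequency; kinase dosed for 20-30% of maximal phosphorylation in three min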
// class assignment uses phosphorylation enrichment with these ranges: class 1: < 0.5; class 2: ≥ 0.5 and < 0.7; class 3: ≥ 0.7

polymerSequence: APIEDYGGGGG [B4GALT6_Y382]
class: class 2
--
polymerSequence: SGGGLYRDMGA [CBX8_Y321]
class: class 1
--
polymerSequence: PKGTGYIKTES [STAT1_Y701_L706S]
class: class 1
--
polymerSequence: KELAPYDENCF [RPS19_Y48_W52C]
class: class 2
--
polymerSequence: HHTDEYEFDEL [TGM1_Y134_YF]
class: class 3
--
polymerSequence: LDAGEYCVPRG [BEX1_Y43]
class: class 3
--
polymerSequence: ADKSAYLMGLN [MYH7_Y386]
class: class 2
--
polymerSequence: TKQLTYEEQYL [PIK3C3_Y310_D314Y]
class: class 1
--
polymerSequence: KDYETYQSFQN [CTNND2_Y1157_P1159S]
class: class 3
--
polymerSequence: EEETDYTPVWC [UROD_Y30_G25E]
class: class 1
--
polymerSequence: SDGHEYIYVDP [PDGFRB_Y579]
class: class 3
--
polymerSequence: ETDSEYVKLSK [C7orf57_Y70_A74S]
class: class 2
--
polymerSequence: TYVVLYDAELT [ERCC4_Y581_R576T]
class: class 3
--
polymerSequence: SHLEDYPFNAE [AKR1B10_Y310]
class: class 2
--
polymerSequence: CTIIHYNYMCN [TP53_Y234_T231I]
class: class 2
--
polymerSequence: GIVEDYRPPFF [ACVRL1_Y421_YF]
class: class 1
--
polymerSequence: HHIDFYKETTN [FGFR1_Y654_K656E_YF]
class: class 3
--
polymerSequence: CPSLPYSPVSS [CAMKK2_Y128]
class: class 2
--
polymerSequence: ENQEIYQKAFD [KPNA1_Y493]
class: class 3
--
polymerSequence: VMICAYLLHRG [PTEN_Y138]
class: class 1
--
polymerSequence: KTTILHKLKLG [ARF1_Y35_Y35H]
class: class 1
--
polymerSequence: RFLRGYQQDAY [HLA-A_Y137_R138Q]
class: class 1
--
polymerSequence: VLRQVYVDFEG [KMT2B_Y1707_R1705Q]
class: class 3
--
polymerSequence: ILGRTYYVNHE [NEDD4_Y627]
class: class 1

---

# assayedTarget: MERTK (UniProt Q12866)
# Sequence (Q12866 whole entry, looked up): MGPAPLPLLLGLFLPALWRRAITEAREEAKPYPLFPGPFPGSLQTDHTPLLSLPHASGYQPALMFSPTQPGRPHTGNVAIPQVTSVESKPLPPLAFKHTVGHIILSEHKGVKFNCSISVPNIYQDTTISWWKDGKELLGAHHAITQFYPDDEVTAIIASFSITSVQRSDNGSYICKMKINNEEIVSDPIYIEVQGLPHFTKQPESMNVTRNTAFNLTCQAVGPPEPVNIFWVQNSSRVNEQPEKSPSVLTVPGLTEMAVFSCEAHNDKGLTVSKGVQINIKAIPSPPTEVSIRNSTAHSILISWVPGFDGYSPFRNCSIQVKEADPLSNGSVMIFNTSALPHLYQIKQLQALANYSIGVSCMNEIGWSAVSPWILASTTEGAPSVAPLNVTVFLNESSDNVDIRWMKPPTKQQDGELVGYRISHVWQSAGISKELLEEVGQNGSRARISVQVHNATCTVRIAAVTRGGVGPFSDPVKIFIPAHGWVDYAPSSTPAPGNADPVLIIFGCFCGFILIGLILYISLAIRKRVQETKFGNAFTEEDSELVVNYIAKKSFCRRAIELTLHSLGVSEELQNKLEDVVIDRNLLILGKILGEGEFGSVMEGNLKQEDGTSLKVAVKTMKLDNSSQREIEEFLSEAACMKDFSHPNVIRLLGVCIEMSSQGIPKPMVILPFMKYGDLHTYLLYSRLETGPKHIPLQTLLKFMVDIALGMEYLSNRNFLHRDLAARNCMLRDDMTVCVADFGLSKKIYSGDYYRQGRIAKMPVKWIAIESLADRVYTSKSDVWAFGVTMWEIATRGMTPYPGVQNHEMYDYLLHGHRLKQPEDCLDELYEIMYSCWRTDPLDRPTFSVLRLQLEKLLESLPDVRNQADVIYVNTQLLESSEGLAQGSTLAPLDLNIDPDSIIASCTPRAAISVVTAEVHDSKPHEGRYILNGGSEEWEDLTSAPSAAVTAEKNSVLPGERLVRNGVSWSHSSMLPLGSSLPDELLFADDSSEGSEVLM
# test: phosphorylation enrichment, bacterial display (enrichment ratio); higher = better substrate or ligand; peptides without Tyr show the background

polymerSequence: LSERGYSFVTT [ACTA2_Y200_T196S]
phosphorylation enrichment: 0.986

polymerSequence: FSTSPYLLEAA [BRIP1_Y921_YF]
phosphorylation enrichment: 0.437

polymerSequence: FVTSMYNEILI [TRPV1_Y310_M315I]
phosphorylation enrichment: 1.17

polymerSequence: YEDTLYTVLHR [UNC13D_Y61_A59T]
phosphorylation enrichment: 8.84

polymerSequence: LNEQHYGGLTG [PGAM4_Y92_R90Q]
phosphorylation enrichment: 0.845

polymerSequence: FLTSSYINIST [IL23R_Y178_YF]
phosphorylation enrichment: 0.47

polymerSequence: ADYYDYGRGLS [KHDRBS3_Y304_H306R]
phosphorylation enrichment: 3.88

polymerSequence: ARVDTYCRHNF [HLA-DRB1_Y107_A103R_YF]
phosphorylation enrichment: 0.486

polymerSequence: CRPPYYHRNCM [HGD_Y334_F329C]
phosphorylation enrichment: 0.515

polymerSequence: VFDMLYQVANL [USP24_Y1087_L1089V]
phosphorylation enrichment: 2.78

polymerSequence: FGSLLYKYAFK [FANCD2_Y458]
phosphorylation enrichment: 0.433

polymerSequence: LEVETYRRLLD [KRT12_Y429_I426V]
phosphorylation enrichment: 0.344

polymerSequence: PECEWYKNGVK [TTN_Y2112]
phosphorylation enrichment: 0.532

polymerSequence: VMICAYLLHRG [PTEN_Y138]
phosphorylation enrichment: 0.482

polymerSequence: SESSFYKSLNL [NGEF_Y289_A286S_YF]
phosphorylation enrichment: 0.468

polymerSequence: GGDAVYTNGAI [RFX2_Y82]
phosphorylation enrichment: 0.359

polymerSequence: EEGNPYFSSTR [MCCC2_Y520_A524T_YF]
phosphorylation enrichment: 0.349

polymerSequence: FSQETYFRVSN [ABCD1_Y180_Q178E_YF]
phosphorylation enrichment: 0.74

polymerSequence: GREAEYSDKHG [EPHB4_Y574]
phosphorylation enrichment: 0.39

polymerSequence: AAFNRYDQERF [CDC73_Y293_YF]
phosphorylation enrichment: 0.398

polymerSequence: MAFDRYVAICS [OR8D4_Y123_C120Y_YF]
phosphorylation enrichment: 0.507

polymerSequence: PLDAEYFTLQI [TP53_Y327_G325A]
phosphorylation enrichment: 0.603

polymerSequence: CTLNVYRQLHN [LUZP1_Y1036_S1034N]
phosphorylation enrichment: 0.475

polymerSequence: YENGEYIVRQG [PRKG1_Y247_I249V]
phosphorylation enrichment: 0.424

polymerSequence: DESEDCRDTVV [CNNM3_Y456_Y456C]
phosphorylation enrichment: 0.518

polymerSequence: NFADPYRQLQF [CTNND2_Y503_YF]
phosphorylation enrichment: 0.454

polymerSequence: SPFEVYVDKSQ [FLNA_Y373]
phosphorylation enrichment: 0.388

polymerSequence: KMGNEYVTKGQ [MYH7_Y410_V406M]
phosphorylation enrichment: 0.374

polymerSequence: NQELIYEGRRL [TBK1_Y354]
phosphorylation enrichment: 0.581

polymerSequence: SHLEDYPFNAE [AKR1B10_Y310]
phosphorylation enrichment: 0.413

polymerSequence: HVPEEYKPKQG [SAXO2_Y37]
phosphorylation enrichment: 0.423

polymerSequence: SENYTYIWWLN [PSG4_Y271_K267E]
phosphorylation enrichment: 0.605

polymerSequence: CPSLPYSPVSS [CAMKK2_Y128]
phosphorylation enrichment: 0.527

polymerSequence: SSDKVYAHQMD [MLH1_Y379_V384D]
phosphorylation enrichment: 0.408

polymerSequence: KHCEDYVCSYN [DSC1_Y846]
phosphorylation enrichment: 0.398

polymerSequence: KLKRSYCSPDI [USP8_Y717_S718C]
phosphorylation enrichment: 0.459

polymerSequence: FLRTGYSIPFG [TGM1_Y370_V372I_YF]
phosphorylation enrichment: 0.753
